target: C-X-C chemokine receptor type 4 (Homo sapiens); test: Competitive inhibition of TAMRAAc-TZ14011 binding to CXCR4 (unknown origin) expressed in CHO cells at 1 uM in presence of ZnCl2 by NanoBRET assay relative to control; type: cell-based
The label depends only on inhibition: y if it is at least 90%, n if it is smaller.

Does the reported inhibition for c1ccc(CN(Cc2ccc3ccc(CN4CCCNCCNCCCNCC4)cc3c2)Cc2ccccn2)nc1 fall at or above the 90% mark?
n

Does the reported inhibition for c1ccc(CN(Cc2ccc(-c3cccc(CN4CCCNCCNCCCNCC4)c3)cc2)Cc2ccccn2)nc1 fall at or above the 90% mark?
n

Does the reported inhibition for c1ccc(CN(Cc2ccc3nc(CN4CCCNCCNCCCNCC4)ccc3c2)Cc2ccccn2)nc1 fall at or above the 90% mark?
y

Does the reported inhibition for c1ccc(CN(Cc2ccc(-c3ccccc3CN3CCCNCCNCCCNCC3)cc2)Cc2ccccn2)nc1 fall at or above the 90% mark?
n

Does the reported inhibition for c1ccc(CN(Cc2ccc(-c3ncccc3CN3CCCNCCNCCCNCC3)cc2)Cc2ccccn2)nc1 fall at or above the 90% mark?
y

###

target: C-X-C chemokine receptor type 4 (Homo sapiens); test: Competitive inhibition of [125I]-CXCL12 binding to CXCR4 in human Jurkat cells at 1 uM in presence of ZnCl2 after 2 hrs by gamma counting analysis relative to control; format: cell-based
testReadout: inhibition (%)
Write the answer as a number in %, unit excluded.

Before answering, review these 2 worked examples.
givensmiles=c1ccc(CN(Cc2ccc3c(c2)-c2cc(CN4CCCNCCNCCCNCC4)ccc2OCCCCO3)Cc2ccccn2)nc1 testreadout=inhibition number=78.4
givensmiles=c1ccc(CN(Cc2cccc(-c3cccc(CN4CCCNCCNCCCNCC4)c3)c2)Cc2ccccn2)nc1 testreadout=inhibition number=105

Report inhibition for c1ccc(CN(Cc2ccc(CN3CCCNCCNCCCNCC3)cc2)Cc2ccccn2)nc1 tested on C-X-C chemokine receptor type 4 (Homo sapiens).
82.5

Report inhibition for c1ccc(CN(Cc2ccc3ccc(CN4CCCNCCNCCCNCC4)cc3c2)Cc2ccccn2)nc1 tested on C-X-C chemokine receptor type 4 (Homo sapiens).
87.5

Report inhibition for c1ccc(CN(Cc2ccnc(-c3ccc(CN4CCCNCCNCCCNCC4)cc3)c2)Cc2ccccn2)nc1 tested on C-X-C chemokine receptor type 4 (Homo sapiens).
89.7

###

biological target: C-X-C chemokine receptor type 4 (Homo sapiens); assay: Competitive inhibition of TAMRAAc-TZ14011 binding to CXCR4 (unknown origin) expressed in CHO cells at 1 uM in absence of ZnCl2 by NanoBRET assay relative to control; assay type: cell-based
Catalogue of compounds with associated inhibition
Write the answer as a number in %, unit excluded.

givensmiles=c1ccc(CN(Cc2ccc(-c3ccc(CN4CCCNCCNCCCNCC4)cc3)nc2)Cc2ccccn2)nc1 targetsystem="C-X-C chemokine receptor type 4 (Homo sapiens)" number=89.1
givensmiles=c1ccc(CN(Cc2ccc3cc(CN4CCCNCCNCCCNCC4)ccc3c2)Cc2ccccn2)nc1 targetsystem="C-X-C chemokine receptor type 4 (Homo sapiens)" number=80.7
givensmiles=c1ccc(CN(Cc2ccc(-c3cccc(CN4CCCNCCNCCCNCC4)c3)cc2)Cc2ccccn2)nc1 targetsystem="C-X-C chemokine receptor type 4 (Homo sapiens)" number=89.7

Fill blank: measured inhibition of the compound c1ccc(CN(Cc2ccc3c(c2)-c2cc(CN4CCCNCCNCCCNCC4)ccc2OCO3)Cc2ccccn2)nc1 is ____.
43.5

Fill blank: measured inhibition of the compound c1ccc(CN(Cc2ccc(-c3ccccc3CN3CCCNCCNCCCNCC3)cc2)Cc2ccccn2)nc1 is ____.
52.6

Fill blank: measured inhibition of the compound c1ccc(CN(Cc2ccc3c(c2)-c2cc(CN4CCCNCCNCCCNCC4)ccc2OCCCO3)Cc2ccccn2)nc1 is ____.
50.4

###

target: C-X-C chemokine receptor type 4 (Homo sapiens); assay: Competitive inhibition of TAMRAAc-TZ14011 binding to CXCR4 (unknown origin) expressed in CHO cells in presence of ZnCl2 by NanoBRET assay relative to control
Catalogue of molecules with associated pIC50
Note on pIC50: it is the negative log10 of concentration, concentration in mol/L.

Before answering, review these 5 worked examples.
givensmiles=c1ccc(CN(Cc2ccc(-c3ncccc3CN3CCCNCCNCCCNCC3)cc2)Cc2ccccn2)nc1 targetsystem="C-X-C chemokine receptor type 4 (Homo sapiens)" testreadout=pIC50 number=8.35
givensmiles=c1ccc(CN(Cc2ccc(-c3ccccc3CN3CCCNCCNCCCNCC3)cc2)Cc2ccccn2)nc1 targetsystem="C-X-C chemokine receptor type 4 (Homo sapiens)" testreadout=pIC50 number=8.24
givensmiles=c1ccc(CN(Cc2ccnc(-c3cccc(CN4CCCNCCNCCCNCC4)c3)c2)Cc2ccccn2)nc1 targetsystem="C-X-C chemokine receptor type 4 (Homo sapiens)" testreadout=pIC50 number=8.46
givensmiles=c1ccc(CN(Cc2ccc3cc(CN4CCCNCCNCCCNCC4)ccc3c2)Cc2ccccn2)nc1 targetsystem="C-X-C chemokine receptor type 4 (Homo sapiens)" testreadout=pIC50 number=8.00
givensmiles=c1ccc(CN(Cc2ccc(CN3CCCNCCNCCCNCC3)cc2)Cc2ccccn2)nc1 targetsystem="C-X-C chemokine receptor type 4 (Homo sapiens)" testreadout=pIC50 number=7.49

Report pIC50 for c1ccc(CN(Cc2ccc3c(CN4CCCNCCNCCCNCC4)cccc3c2)Cc2ccccn2)nc1 tested on C-X-C chemokine receptor type 4 (Homo sapiens).
8.80

Report pIC50 for c1ccc(CN(Cc2ccccn2)Cc2ccccc2-c2cccc(CN3CCCNCCNCCCNCC3)c2)nc1 tested on C-X-C chemokine receptor type 4 (Homo sapiens).
8.10

###

target: C-X-C chemokine receptor type 4 (Homo sapiens, UniProt P61073); assay: Competitive inhibition of [125I]-CXCL12 binding to CXCR4 in human Jurkat cells at 1 uM in presence of ZnCl2 after 2 hrs by gamma counting analysis relative to control; assay type: cell-based
Sequence (P61073 whole entry): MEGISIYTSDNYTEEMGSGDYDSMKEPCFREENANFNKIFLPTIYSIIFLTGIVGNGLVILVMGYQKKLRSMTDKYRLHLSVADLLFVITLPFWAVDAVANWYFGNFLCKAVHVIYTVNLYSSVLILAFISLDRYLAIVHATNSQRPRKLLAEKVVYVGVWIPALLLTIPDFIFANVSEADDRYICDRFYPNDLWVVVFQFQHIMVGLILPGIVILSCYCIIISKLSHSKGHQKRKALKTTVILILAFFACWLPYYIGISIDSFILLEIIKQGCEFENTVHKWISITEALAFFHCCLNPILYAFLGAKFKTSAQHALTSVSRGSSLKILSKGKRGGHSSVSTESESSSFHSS
testReadout: inhibition
Entry format: amount then unit.

givensmiles=c1ccc(CN(Cc2ccc3c(c2)-c2cc(CN4CCCNCCNCCCNCC4)ccc2OCO3)Cc2ccccn2)nc1 targetsystem="C-X-C chemokine receptor type 4 (Homo sapiens, UniProt P61073)" result=95.6%
givensmiles=c1ccc(CN(Cc2ccc(-c3ccc(CN4CCCNCCNCCCNCC4)cc3)nc2)Cc2ccccn2)nc1 targetsystem="C-X-C chemokine receptor type 4 (Homo sapiens, UniProt P61073)" result=105%
givensmiles=c1ccc(CN(Cc2cccc(-c3ccc(CN4CCCNCCNCCCNCC4)cc3)c2)Cc2ccccn2)nc1 targetsystem="C-X-C chemokine receptor type 4 (Homo sapiens, UniProt P61073)" result=119%

Fill blank: measured inhibition of the molecule c1ccc(CN(Cc2ccc(-c3ccc(CN4CCCNCCNCCCNCC4)cn3)nc2)Cc2ccccn2)nc1 is ____.
98.7%

Fill blank: measured inhibition of the molecule c1ccc(CN(Cc2cccc(-c3ccccc3CN3CCCNCCNCCCNCC3)c2)Cc2ccccn2)nc1 is ____.
116%

Fill blank: measured inhibition of the molecule c1ccc(CN(Cc2ccc(-c3ncccc3CN3CCCNCCNCCCNCC3)cc2)Cc2ccccn2)nc1 is ____.
88.5%

###

Catalogue of molecules with associated inhibition
biological target: C-X-C chemokine receptor type 4 (Homo sapiens, UniProt P61073); test: Competitive inhibition of [125I]-CXCL12 binding to CXCR4 in human Jurkat cells at 1 uM in absence of ZnCl2 after 2 hrs by gamma counting analysis relative to control; format: cell-based
Write the answer as a number in %, unit excluded.

givensmiles=c1ccc(CN(Cc2ccc(CN3CCCNCCNCCCNCC3)cc2)Cc2ccccn2)nc1 testreadout=inhibition unitslabel=% number=110
givensmiles=c1ccc(CN(Cc2ccc(-c3ccc(CN4CCCNCCNCCCNCC4)cc3)nc2)Cc2ccccn2)nc1 testreadout=inhibition unitslabel=% number=27
givensmiles=c1ccc(CN(Cc2ccc3c(c2)-c2cc(CN4CCCNCCNCCCNCC4)ccc2OCCO3)Cc2ccccn2)nc1 testreadout=inhibition unitslabel=% number=48.7
givensmiles=c1ccc(CN(Cc2ccc(-c3cccc(CN4CCCNCCNCCCNCC4)c3)cc2)Cc2ccccn2)nc1 testreadout=inhibition unitslabel=% number=10.9
givensmiles=c1ccc(CN(Cc2ccccn2)Cc2ccccc2-c2ccccc2CN2CCCNCCNCCCNCC2)nc1 testreadout=inhibition unitslabel=% number=90.4

Fill blank: measured inhibition of the molecule c1ccc(CN(Cc2ccnc(-c3cccc(CN4CCCNCCNCCCNCC4)c3)c2)Cc2ccccn2)nc1 is ____.
63

###

Catalogue of compounds with associated pEC50
tested on: Human immunodeficiency virus 1; test: Antiviral activity against X4 tropic HIV-1 NL4-3 infected in human MT4 cells assessed as protection against virus-induced cytopathic effect in absence of ZnCl2 after 5 days by MTT assay; type: functional, organism-based; details: Human immunodeficiency virus 1, NL4-3, MT4, 120 h
Note on pEC50: it is the negative log10 of concentration, concentration in mol/L.

givensmiles=c1ccc(CN(Cc2ccc(-c3cccc(CN4CCCNCCNCCCNCC4)c3)cc2)Cc2ccccn2)nc1 number=6.10

# input for lookup
Fill blank: measured pEC50 of the compound c1ccc(CN(Cc2ccc3c(c2)-c2cc(CN4CCCNCCNCCCNCC4)ccc2OCCO3)Cc2ccccn2)nc1 is ____.
5.72
